targetUnderTest: PD-1/PD-L1 (Homo sapiens)
Sequence (Q9NZQ7 19-238 limits assumed): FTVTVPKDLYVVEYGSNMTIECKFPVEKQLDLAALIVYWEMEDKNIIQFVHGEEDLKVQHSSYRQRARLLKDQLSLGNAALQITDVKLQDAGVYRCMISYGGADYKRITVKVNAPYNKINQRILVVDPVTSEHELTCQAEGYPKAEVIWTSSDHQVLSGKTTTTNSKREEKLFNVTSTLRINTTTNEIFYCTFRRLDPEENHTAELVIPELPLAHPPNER
testMethodNotes: PD-1/PD-L1 biochemical protein-protein interaction assay (ALPHA)
experimentalContext: 0.3 nM His tagged PD-L1, 2.5 nM biotinylated Fc-PD-1, 60 minutes at 25° C., read-out: IC50 PD-L1-PD-1 Alpha IC50-mono PD-L1-fcP-D1
hey, just use 1 if measured IC50 is less than 0.1 nM, otherwise 0

q: Lab note: IC50 threshold 0.1 nM. Does this compound come in strictly under it? `C[C@@](CO)(NCc1cc(Br)c(OCc2cccc(-c3cccc(-c4ccc5c(c4)C[C@@H](N)C5)c3Cl)c2Cl)nc1OCc1cncc(S(C)(=O)=O)c1)C(=O)O`
a: 0

q: Lab note: IC50 threshold 0.1 nM. Does this compound come in strictly under it? `COc1nc(-c2cccc(-c3cccc(-c4ccn5cc(CNC[C@@H]6CCC(=O)N6)nc5c4)c3Cl)c2Cl)ccc1CNC[C@@H]1CCC(=O)N1`
a: 0

q: Lab note: IC50 threshold 0.1 nM. Does this compound come in strictly under it? `COc1nc(-c2cccc(-c3cccc4c3CC[C@@H]4Oc3nc(OCc4cncc(C#N)c4)c(CN[C@@](C)(CO)C(=O)O)cc3Cl)c2Br)ccc1C1=NCCN1`
a: 0

***
q: Lab note: IC50 threshold 0.1 nM. Does this compound come in strictly under it? `Cc1c(COc2cc(OCc3cncc(C#N)c3)c(CN[C@@](C)(CO)C(=O)O)cc2Cl)cccc1-c1cccc(-c2ccc(C3=NCCN3)cn2)c1C`
a: 1

q: Lab note: IC50 threshold 0.1 nM. Does this compound come in strictly under it? `COc1nc(-c2cccc(-c3cccc(COc4cc(OCc5cncc(C#N)c5)c(CNC[C@@H](O)CC(=O)O)cc4Cl)c3C)c2C)ccc1C1=NCCN1`
a: 1

q: Lab note: IC50 threshold 0.1 nM. Does this compound come in strictly under it? `COc1nc(-c2cccc(-c3cccc(-c4ccc5c(C[N+](C)(C)C)c[nH]c5c4)c3Cl)c2Cl)ccc1CNC[C@@H]1CCC(=O)N1`
a: 0

Hello, the source for this data is patent US12590062B2, in case you need it.
